# ASSAY SUMMARY: gradient 5% acetonitrile 3 min, to 50% in 2 min, to 85% in 15 min, held 3 min, 100 µL/min
# ASSAY SETUP: column: Zorbax Extend-C18 2.1 x 50 mm; eluents: water / acetonitrile, 0.1% formic acid
Listed here: items and their measured RP-LC retention time.

>  <MOLECULE>
CCC(c1cccs1)N1C(=O)[C@H]2CN(S(=O)(=O)c3cc(F)cc(F)c3)C[C@H]2C1=O (some centres undefined)

>  <RP-LC retention time [s]>
1040

$$$$
>  <MOLECULE>
O=C(NCc1cccc(Cl)c1)c1ccc2c(c1)ncn2CCN1CCCC1

>  <RP-LC retention time [s]>
601

$$$$
>  <MOLECULE>
CC1(C(N)=O)CC(c2ccccc2)=NO1 (centres undefined)

>  <RP-LC retention time [s]>
828

$$$$
>  <MOLECULE>
CCc1noc2nc(CCC(=O)NCCCN3CCN(CC)CC3)nc(N3CCCCC3)c12

>  <RP-LC retention time [s]>
595

$$$$
>  <MOLECULE>
COc1ccccc1-c1nc(Cc2noc(-c3ccc(F)cc3)n2)c(C)o1

>  <RP-LC retention time [s]>
1040

$$$$
>  <MOLECULE>
CCN(CC)CCCNc1ccc(-c2nc(-c3cccc(F)c3)no2)cn1

>  <RP-LC retention time [s]>
707

$$$$
>  <MOLECULE>
COCCNc1c(-c2ccc(F)cc2)nc2sc(C(=O)N3CCN(C)CC3)c(C)n12

>  <RP-LC retention time [s]>
569

$$$$
>  <MOLECULE>
O=C(NCCN1CCOCC1)C1CCN(Cc2cc3ccccc3n2Cc2ccccc2Cl)CC1

>  <RP-LC retention time [s]>
621

$$$$
>  <MOLECULE>
Cc1[nH]c(C(=O)N2CCC(CC(=O)NC3CCCCC3)CC2)c(C)c1C(=O)OC(C)C

>  <RP-LC retention time [s]>
825

$$$$
>  <MOLECULE>
O=C1[C@H]2CN(Cc3ccccc3OC(F)(F)F)C[C@H]2C(=O)N1Cc1ccc2c(c1)OCO2

>  <RP-LC retention time [s]>
1050

$$$$
>  <MOLECULE>
O=C(CCN1C(=O)C2CC=CCC2C1=O)N1CCN(c2ccccn2)CC1 (centres undefined)

>  <RP-LC retention time [s]>
558

$$$$
>  <MOLECULE>
CCn1cc(-c2nc(CC(=O)Nc3ccc(Cl)cc3)cs2)c2cccnc21

>  <RP-LC retention time [s]>
996

$$$$
>  <MOLECULE>
Cc1cc(C)n(Cc2nc(-c3ccc(NC(=O)CC(C)(C)C)cc3)oc2C)n1

>  <RP-LC retention time [s]>
939

$$$$
>  <MOLECULE>
O=c1ccc(-c2ccc3c(c2)OCO3)nn1CCc1nc(-c2ccc3c(c2)OCO3)no1

>  <RP-LC retention time [s]>
893

$$$$
>  <MOLECULE>
O=C(CCc1nc2ccccc2s1)N1CCC(c2noc(-c3ccccn3)n2)C1 (centres undefined)

>  <RP-LC retention time [s]>
755

$$$$
>  <MOLECULE>
CCNC(=O)c1cc2cc(Cl)ccc2[nH]1

>  <RP-LC retention time [s]>
806

$$$$
>  <MOLECULE>
CCN1CCN(C(=O)C2CCN(S(=O)(=O)c3c(C)nn(-c4ccc(F)cc4)c3C)CC2)CC1

>  <RP-LC retention time [s]>
641

$$$$
>  <MOLECULE>
Cc1cc(=O)n(CC(=O)Nc2ccc3c(c2)OCO3)c(N2CCOCC2)n1

>  <RP-LC retention time [s]>
644

$$$$
>  <MOLECULE>
Cn1c(=O)c(=O)n(CC(=O)NCc2cccc(Br)c2)c2cccnc21

>  <RP-LC retention time [s]>
717

$$$$

----------
Listed here: items and their measured RP-LC retention time.
# ASSAY SUMMARY: gradient 5% acetonitrile 3 min, to 50% in 2 min, to 85% in 15 min, held 3 min, 100 µL/min
# ASSAY SETUP: column: Zorbax Extend-C18 2.1 x 50 mm; eluents: water / acetonitrile, 0.1% formic acid

>  <COMPOUND>
CCOC(=O)CCc1c(C)nn(-c2cc(N3CCCC3)ncn2)c1C

>  <RP-LC retention time>
868 s

$$$$
>  <COMPOUND>
O=C(NCc1nnc(SCc2ccccn2)o1)c1ccccc1

>  <RP-LC retention time>
586 s

$$$$
>  <COMPOUND>
O=C(CCCSc1ccc(F)cc1)Nc1nnc(Cc2ccc3c(c2)OCO3)o1

>  <RP-LC retention time>
807 s

$$$$
>  <COMPOUND>
CCOC(=O)C1=C(C)NC(=O)NC1c1ccc(-c2cccc([N+](=O)[O-])c2)o1 (stereo not given)

>  <RP-LC retention time>
761 s

$$$$
>  <COMPOUND>
O=c1ccc(N2CCCN(S(=O)(=O)c3ccc(F)cc3)CC2)nn1-c1ccccc1

>  <RP-LC retention time>
846 s

$$$$
>  <COMPOUND>
O=C(Cc1ccc(Cl)cc1)N1CCN(c2cnn3cnnc3c2)CC1

>  <RP-LC retention time>
656 s

$$$$
>  <COMPOUND>
CCc1ccc(CNC(=O)Cc2c(C(=O)O)c(C)cn2CC)cc1

>  <RP-LC retention time>
842 s

$$$$
>  <COMPOUND>
OC1(c2ccccn2)CCOC2(CCN(Cc3c(F)cccc3Cl)CC2)C1 (stereo not given)

>  <RP-LC retention time>
560 s

$$$$
>  <COMPOUND>
O=C(CSCc1ccccc1)Nc1ccccc1Cl

>  <RP-LC retention time>
978 s

$$$$
>  <COMPOUND>
CCCn1cc(S(=O)(=O)NCc2ccc(F)cc2)c2cccnc21

>  <RP-LC retention time>
912 s

$$$$

----------
# ASSAY SUMMARY: gradient 5% acetonitrile 3 min, to 50% in 2 min, to 85% in 15 min, held 3 min, 100 µL/min
# ASSAY SETUP: column: Zorbax Extend-C18 2.1 x 50 mm; eluents: water / acetonitrile, 0.1% formic acid
QUANTITY: RP-LC retention time (s)

>  <COMPOUND>
CCOc1ccccc1C1NC(=O)N(CC(=O)NC2CCCCC2)C2=C1C(=O)OC2 (centres undefined)

>  <QUANTITY>
RP-LC retention time

>  <MEASURE UNIT>
s

>  <OBSERVED>
722

$$$$
>  <COMPOUND>
Cc1nc(NC(=O)C2CC(=O)N(c3n[nH]c4cccc(F)c34)C2)sc1C (centres undefined)

>  <QUANTITY>
RP-LC retention time

>  <MEASURE UNIT>
s

>  <OBSERVED>
688

$$$$
>  <COMPOUND>
CCCNC(=O)c1sc(Nc2cccc(C)n2)nc1C

>  <QUANTITY>
RP-LC retention time

>  <MEASURE UNIT>
s

>  <OBSERVED>
697

$$$$
>  <COMPOUND>
COc1ccccc1NC(=O)Cn1cccc1-c1nnc(C2CCC2)o1

>  <QUANTITY>
RP-LC retention time

>  <MEASURE UNIT>
s

>  <OBSERVED>
942

$$$$
>  <COMPOUND>
CCOC(=O)COc1ccccc1C1C(C(=O)OC)=C(C)NC2=C1C(=O)c1ccccc12 (centres undefined)

>  <QUANTITY>
RP-LC retention time

>  <MEASURE UNIT>
s

>  <OBSERVED>
957

$$$$
>  <COMPOUND>
Cn1nc(-c2nnc(-c3ccccc3)o2)c2c1CCN(S(=O)(=O)c1cc(F)ccc1F)C2

>  <QUANTITY>
RP-LC retention time

>  <MEASURE UNIT>
s

>  <OBSERVED>
940

$$$$
>  <COMPOUND>
Cc1cc(C)c(S(=O)(=O)N2CCC3(CC2)c2nccn2CCN3C)c(C)c1

>  <QUANTITY>
RP-LC retention time

>  <MEASURE UNIT>
s

>  <OBSERVED>
684

$$$$
>  <COMPOUND>
Cc1ccc2c(c1)C(O)(CC(=O)c1cccc(N)c1)C(=O)N2 (centres undefined)

>  <QUANTITY>
RP-LC retention time

>  <MEASURE UNIT>
s

>  <OBSERVED>
606

$$$$
>  <COMPOUND>
COc1ccccc1OCC1c2ccsc2CCN1C(=O)CN(CC1CC1)C(=O)C1CC1 (centres undefined)

>  <QUANTITY>
RP-LC retention time

>  <MEASURE UNIT>
s

>  <OBSERVED>
928

$$$$
>  <COMPOUND>
O=C(NCC1CCCO1)N1CCCn2nc(-c3ccncc3)cc2C1 (centres undefined)

>  <QUANTITY>
RP-LC retention time

>  <MEASURE UNIT>
s

>  <OBSERVED>
551

$$$$
>  <COMPOUND>
CCOC(=O)c1sc(NC(=O)C2CCCCN2S(C)(=O)=O)cc1C (centres undefined)

>  <QUANTITY>
RP-LC retention time

>  <MEASURE UNIT>
s

>  <OBSERVED>
807

$$$$
>  <COMPOUND>
Cn1nc(C(=O)Nc2ccccc2)c2c1CCN(C(=O)Nc1ccc(Br)cc1F)C2

>  <QUANTITY>
RP-LC retention time

>  <MEASURE UNIT>
s

>  <OBSERVED>
956

$$$$
>  <COMPOUND>
Cc1cc(C)c(NS(=O)(=O)c2cc(-c3nc(C)c(C)s3)sc2C)c(C)c1

>  <QUANTITY>
RP-LC retention time

>  <MEASURE UNIT>
s

>  <OBSERVED>
1260

$$$$
>  <COMPOUND>
Cc1ccc(Oc2nccn3c(=O)n(CC(=O)Nc4ccc(C(C)C)cc4)nc23)cc1

>  <QUANTITY>
RP-LC retention time

>  <MEASURE UNIT>
s

>  <OBSERVED>
1030

$$$$
>  <COMPOUND>
Cc1cc2nc(NCCCO)n(CC(=O)c3cc(C(C)(C)C)c(O)c(C(C)(C)C)c3)c2cc1C

>  <QUANTITY>
RP-LC retention time

>  <MEASURE UNIT>
s

>  <OBSERVED>
1030

$$$$
>  <COMPOUND>
Cc1ccc(CN2CCC(CNC(=O)Cn3ccc4c(=O)n(C)c(=O)n(C)c43)CC2)cc1

>  <QUANTITY>
RP-LC retention time

>  <MEASURE UNIT>
s

>  <OBSERVED>
601

$$$$
>  <COMPOUND>
CC(=O)Nc1ccc(S(=O)(=O)N2CCCCC2c2cccnc2)cc1 (centres undefined)

>  <QUANTITY>
RP-LC retention time

>  <MEASURE UNIT>
s

>  <OBSERVED>
593

$$$$
>  <COMPOUND>
Cc1ccc(NC(=O)N2CCC(C(C)C(=O)Nc3ccc(C)cc3Cl)CC2)cc1 (centres undefined)

>  <QUANTITY>
RP-LC retention time

>  <MEASURE UNIT>
s

>  <OBSERVED>
950

$$$$
>  <COMPOUND>
CCN(CC)CCCNC(=O)C1CCC(=O)N(c2ccc(OC)cc2)C1c1ccc(F)cc1 (centres undefined)

>  <QUANTITY>
RP-LC retention time

>  <MEASURE UNIT>
s

>  <OBSERVED>
614

$$$$
